- Tested on: SK-MEL-2
- assay-method-text: NCI tumour cell line growth inhibition, 48 h
Activity calls are given as the source filed them. Rule as the data show it: active = GI50 up to about 1.1 µM and inactive = higher.
measurement-name: GI50

Guide cases for GI50, answers given:
C/C(CC(=O)Nc1ccccc1C)=N/NS(=O)(=O)c1ccc(C)cc1 > 100 µM (inactive)
CCOP(=O)(O)C(C)(C)NC > 100 µM (inactive)
COC(=O)Cc1cc2c(cc1C(=O)c1ccc(N)cc1)OCO2 0.964 µM (active)

Can you look up GI50 on SK-MEL-2 for COc1ccccc1/C=C/C(=O)c1sc(-c2cccnc2)nc1C ?
> 100 µM (inactive)

Can you look up GI50 on SK-MEL-2 for CCOC(=O)C(c1c[nH]c2ccccc12)(c1c[nH]c2ccccc12)c1c[nH]c2ccccc12 ?
18.8 µM (inactive)

Can you look up GI50 on SK-MEL-2 for O=c1cccc2n1CC1CNC[C@H]2C1 ?
> 100 µM (inactive)
